test system: HT29 colon; experiment: NCI-60 one-dose screen, 48 h (100 = growth as untreated, 0 = no growth, -100 = all killed); details: 10 µM
The panel holds about 83,000 compounds, 20% with a hit somewhere; the sample as a whole holds those more often.
Classification field: enter fulfilled for growth values not below 20%, not fulfilled for values below it.

# example entries with known answers
>>> category("COc1nccnc1NS(=O)(=O)c1ccc(NC2=C(Cl)C(=O)c3nc(C)ccc3C2=O)cc1")
"fulfilled"
>>> category("CC1=C(c2cc(-c3ccc(Cl)cc3)c(C#N)c(N)n2)C(c2ccccc2)NC(=S)N1 (stereo not given)")
"fulfilled"
>>> category("Oc1ccc(/C=C2\\CCCc3cc4ccc(O)cc4[o+]c32)c(O)c1")
"fulfilled"
>>> category("Cc1ccc(-c2cc(C(=O)N=Nc3c(O)[nH]c4ccc(Br)cc34)c3ccccc3n2)cc1")
"fulfilled"
>>> category("O=C(Nc1cccc([N+](=O)[O-])c1)Nc1cccc([N+](=O)[O-])c1")
"fulfilled"
>>> category("CS(=O)(=O)Nc1ccc(-c2ccc3c(c2)ncn3-c2ccc(NC(=O)Nc3ccc(Br)cc3)cc2)cc1")
"not fulfilled"

q: In plain terms: is recorded growth at least 20% for O=C(NO)c1ccc(-c2nc3ccc4[nH]ncc4c3c3c2CCCC3)cc1 ?
a: not fulfilled

q: In plain terms: is recorded growth at least 20% for O=C(NO)c1ccc(CNc2nc(-c3ccccc3)c3ccccc3n2)cc1 ?
a: not fulfilled

q: In plain terms: is recorded growth at least 20% for Cn1c(O)c(N=Nc2nc(-c3cc4ccccc4oc3=O)cs2)c2cc(Br)ccc21 ?
a: fulfilled
